# test system: α1 and β1 subunits of guanylate cyclase (sGC), expressed in Sf9 cells (Homo sapiens, UniProt Q02108+Q02153)
# Construct: made in house; host or cells: Sf9 insect cells (baculovirus co-infection); high-speed supernatant used unpurified
# Sequence (Q02108 1-690): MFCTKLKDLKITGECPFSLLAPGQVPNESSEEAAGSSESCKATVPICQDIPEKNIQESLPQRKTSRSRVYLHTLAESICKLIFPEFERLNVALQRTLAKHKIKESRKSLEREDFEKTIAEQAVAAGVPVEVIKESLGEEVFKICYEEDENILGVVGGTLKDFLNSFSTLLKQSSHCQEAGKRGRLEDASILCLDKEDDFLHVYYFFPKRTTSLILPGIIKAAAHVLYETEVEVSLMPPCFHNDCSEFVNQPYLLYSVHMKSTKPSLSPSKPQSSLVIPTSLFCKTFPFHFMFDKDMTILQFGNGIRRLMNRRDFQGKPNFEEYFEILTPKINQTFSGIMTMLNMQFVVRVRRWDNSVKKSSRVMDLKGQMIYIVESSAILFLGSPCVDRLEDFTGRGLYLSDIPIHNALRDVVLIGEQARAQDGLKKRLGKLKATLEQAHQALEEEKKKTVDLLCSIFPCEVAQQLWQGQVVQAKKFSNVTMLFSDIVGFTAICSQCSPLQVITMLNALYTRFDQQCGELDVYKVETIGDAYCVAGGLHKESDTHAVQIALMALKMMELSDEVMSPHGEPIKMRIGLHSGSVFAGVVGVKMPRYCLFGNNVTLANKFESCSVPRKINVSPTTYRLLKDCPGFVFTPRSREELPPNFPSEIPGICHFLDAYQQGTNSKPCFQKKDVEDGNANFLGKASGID
# Sequence (Q02153 1-619): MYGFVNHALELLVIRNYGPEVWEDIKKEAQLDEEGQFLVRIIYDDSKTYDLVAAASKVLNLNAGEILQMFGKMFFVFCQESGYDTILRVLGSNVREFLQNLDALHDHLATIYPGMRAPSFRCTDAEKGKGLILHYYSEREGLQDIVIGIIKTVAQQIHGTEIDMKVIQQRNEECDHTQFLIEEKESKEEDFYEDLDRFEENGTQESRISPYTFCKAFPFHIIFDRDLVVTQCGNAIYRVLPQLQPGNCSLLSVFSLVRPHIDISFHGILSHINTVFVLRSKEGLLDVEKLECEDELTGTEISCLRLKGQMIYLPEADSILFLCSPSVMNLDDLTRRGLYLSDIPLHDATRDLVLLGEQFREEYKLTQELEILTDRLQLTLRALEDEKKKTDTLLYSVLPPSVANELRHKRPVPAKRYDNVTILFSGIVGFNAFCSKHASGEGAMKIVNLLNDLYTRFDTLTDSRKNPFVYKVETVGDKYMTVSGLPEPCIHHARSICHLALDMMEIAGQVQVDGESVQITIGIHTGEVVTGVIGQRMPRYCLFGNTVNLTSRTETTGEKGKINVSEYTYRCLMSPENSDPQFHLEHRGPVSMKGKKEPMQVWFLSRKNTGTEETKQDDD
# assay overview: Guanylate Cyclase Assay (formation of cyclic GMP from GTP)
# Assay type: biochemical
# cond: compound at 100 μM with 1 μM sodium nitroprusside (SNP); normalized to 100 μM YC-1 (without SNP) as 100%
Parameter: Mean efficacy at 100 μM with 1 μM of SNP, [% of YC-1]. Scope: all listed entries.
measurement label: Mean efficacy at 100 μM with 1 μM of SNP, [% of YC-1]

compound="O=[N+]([O-])c1cccnc1Oc1nn(Cc2ccccc2F)c2ncccc12 [Example 35]" result="28.1 % of YC-1"
compound="O=C(O)c1ccccc1Oc1nn(Cc2ccccc2)c2ccccc12 [Example 15]" result="47 % of YC-1"
compound="c1ccc(Cn2nc(Oc3ccccn3)c3ccccc32)cc1 [Example 11, 1-benzyl-3-(2-pyridinyloxy)-1H-indazole]" result="70 % of YC-1"
compound="c1ccc(Cn2nc(Oc3ncccn3)c3ccccc32)cc1 [Example 12]" result="43 % of YC-1"
compound="O=C(O)c1ccc(Oc2nn(Cc3ccccc3)c3ccccc23)o1 [Example 4]" result="26 % of YC-1"
compound="C(=Cc1ccccc1)Cn1nc(OCc2ccccc2)c2ccccc21 [Example 27]" result="18 % of YC-1"
compound="CC(CCCC(C)(C)O)NC(=O)c1ccc(Oc2nn(Cc3ccccc3)c3ccccc23)o1 (stereo not drawn) [Example 8]" result="9 % of YC-1"
compound="O=C(NN1CCOCC1)c1ccccc1Oc1nn(Cc2ccccc2)c2ccccc12 [Example 25]" result="14 % of YC-1"
compound="CN(C)CCCN1CCN(C(=O)c2ccccc2Oc2nn(Cc3ccccc3)c3ccccc23)CC1 [Example 17]" result="14 % of YC-1"

* * *

measurement label: melting point

substance_smiles=O=[N+]([O-])c1cccnc1Oc1nn(Cc2ccccc2F)c2ncccc12 result="115 to 117 °C"
substance_smiles=O=C(O)c1ccc(Oc2nn(Cc3ccccc3)c3ccccc23)o1 result="162 to 165 °C"
substance_smiles=O=[N+]([O-])c1ccc(Oc2nn(Cc3ccccc3F)c3ncccc23)nc1 result="111 to 113 °C"
substance_smiles=Clc1ccc(NN=Cc2ccc(Oc3nn(Cc4ccccc4)c4ccccc34)o2)nn1 result="200 to 202 °C"
substance_smiles=OCc1cccc(Oc2nn(Cc3ccccc3)c3ccccc23)n1 result="156 to 158 °C"
substance_smiles=OCc1ccc(Cn2nc(OCc3ccccc3)c3ccccc32)o1 result="80 to 82 °C"

* * *

# test system: α1 and β1 subunits of guanylate cyclase (sGC), expressed in Sf9 cells (Homo sapiens, UniProt Q02108+Q02153)
# Construct: made in house; host or cells: Sf9 insect cells (baculovirus co-infection); high-speed supernatant used unpurified
# assay overview: Guanylate Cyclase Assay (formation of cyclic GMP from GTP)
# Type: biochemical
# cond: (activity at 100 μM with 1 μM SNP − activity at 100 μM)/(activity of SNP at 1 μM − basal activity of sGC)
measurement label: Mean activation at 100 μM

molecule="CN1CCCC1CCNC(=O)c1ccccc1Oc1nn(Cc2ccccc2)c2ccccc12 (stereo not drawn)" result=2.2
molecule="CCCC(CO)NC(=O)c1ccc(Oc2nn(Cc3ccccc3)c3ccccc23)o1 (stereo not drawn)" result=3.1
molecule=CN(C)CCNC(=O)c1ccccc1Oc1nn(Cc2ccccc2)c2ccccc12 result=1.9
molecule="O=C(NC1CCC(O)CC1)c1ccccc1Oc1nn(Cc2ccccc2)c2ccccc12 (stereo not drawn)" result=1.9
molecule=FC(F)(F)c1cncc(Oc2nn(Cc3ccccc3)c3ccccc23)c1 result=1.4
molecule=O=C(NCCCn1ccnc1)c1ccccc1Oc1nn(Cc2ccccc2)c2ccccc12 result=1.7
molecule=O=C(N[C@H]1Cc2ccccc2[C@H]1O)c1ccccc1Oc1nn(Cc2ccccc2)c2ccccc12 result=1.5
molecule=CN(C)CCCNC(=O)c1ccc(Oc2nn(Cc3ccccc3)c3ccccc23)o1 result=1.7
molecule=O=[N+]([O-])c1cccnc1Oc1nn(Cc2ccccc2F)c2ncccc12 result=1.9

* * *

Parameter: Emax at 100 µM. Scope: all listed entries.
# test system: α1 and β1 subunits of guanylate cyclase (sGC), expressed in Sf9 cells (Homo sapiens, UniProt Q02108+Q02153)
# Construct: made in house; host or cells: Sf9 insect cells (baculovirus co-infection); high-speed supernatant used unpurified
# Sequence (Q02108 1-690): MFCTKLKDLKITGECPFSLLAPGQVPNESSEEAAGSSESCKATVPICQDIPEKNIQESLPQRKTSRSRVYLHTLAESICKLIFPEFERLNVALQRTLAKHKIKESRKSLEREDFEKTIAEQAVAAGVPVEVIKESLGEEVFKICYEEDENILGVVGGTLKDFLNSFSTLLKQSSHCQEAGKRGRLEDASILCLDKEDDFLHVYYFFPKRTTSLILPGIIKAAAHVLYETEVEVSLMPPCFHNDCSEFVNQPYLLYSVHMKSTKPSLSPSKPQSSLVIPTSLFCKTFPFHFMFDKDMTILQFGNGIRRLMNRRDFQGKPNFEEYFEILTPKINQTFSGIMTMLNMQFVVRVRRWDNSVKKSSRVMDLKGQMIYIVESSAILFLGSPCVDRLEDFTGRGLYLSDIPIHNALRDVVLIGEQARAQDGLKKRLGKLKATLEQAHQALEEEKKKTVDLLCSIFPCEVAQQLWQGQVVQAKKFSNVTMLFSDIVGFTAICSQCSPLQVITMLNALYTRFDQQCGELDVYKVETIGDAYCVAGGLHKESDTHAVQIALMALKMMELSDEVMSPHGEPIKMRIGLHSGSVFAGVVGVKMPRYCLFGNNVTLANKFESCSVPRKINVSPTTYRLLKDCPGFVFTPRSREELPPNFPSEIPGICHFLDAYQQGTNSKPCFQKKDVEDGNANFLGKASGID
# Sequence (Q02153 1-619): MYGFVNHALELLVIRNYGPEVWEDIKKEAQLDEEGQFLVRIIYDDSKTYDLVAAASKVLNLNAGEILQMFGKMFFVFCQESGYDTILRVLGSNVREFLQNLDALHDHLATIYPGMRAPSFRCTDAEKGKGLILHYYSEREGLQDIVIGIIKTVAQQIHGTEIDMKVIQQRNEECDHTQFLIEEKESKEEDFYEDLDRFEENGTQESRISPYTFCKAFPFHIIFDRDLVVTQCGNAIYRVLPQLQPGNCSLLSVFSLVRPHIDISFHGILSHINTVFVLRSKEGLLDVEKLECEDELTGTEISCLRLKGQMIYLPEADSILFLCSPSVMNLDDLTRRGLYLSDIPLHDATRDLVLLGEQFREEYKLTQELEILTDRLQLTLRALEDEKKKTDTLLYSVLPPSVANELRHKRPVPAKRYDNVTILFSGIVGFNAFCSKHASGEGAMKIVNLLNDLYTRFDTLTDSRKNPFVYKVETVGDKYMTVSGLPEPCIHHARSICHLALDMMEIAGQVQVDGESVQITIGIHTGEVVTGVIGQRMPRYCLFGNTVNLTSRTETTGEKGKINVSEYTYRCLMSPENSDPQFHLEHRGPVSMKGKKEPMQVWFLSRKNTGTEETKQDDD
# assay overview: Guanylate Cyclase Assay (formation of cyclic GMP from GTP)
# Type: biochemical
# cond: compound at 100 μM without SNP; normalized to activity of 100 μM YC-1 (without SNP) as 100%; read-out: Mean basal efficacy at 100 μM, [% of YC-1]
measurement label: Emax at 100 µM (%)

compound=O=C(NCCCn1ccnc1)c1ccccc1Oc1nn(Cc2ccccc2)c2ccccc12 measurement_label="Emax at 100 µM" result=5
compound=c1ccc(Cn2nc(Oc3ccccn3)c3ccccc32)cc1 measurement_label="Emax at 100 µM" result=9
compound=NC(=O)c1cccnc1Oc1nn(Cc2ccccc2)c2ccccc12 measurement_label="Emax at 100 µM" result=0
compound="CN1CCCC1CCNC(=O)c1ccccc1Oc1nn(Cc2ccccc2)c2ccccc12 (centres unmarked)" measurement_label="Emax at 100 µM" result=3
compound=O=[N+]([O-])c1ccc(Oc2nn(Cc3ccccc3F)c3ncccc23)nc1 measurement_label="Emax at 100 µM" result=4
